Where these numbers come from: PubChem BioAssay (NCI)

System: MOLT-4 leukemia
Assay: NCI-60 one-dose screen, 48 h
Settings: 10 µM unless noted
About 83,000 compounds went through this panel and 20% of them were active in at least one assay; those are over-represented in the sample as a whole. Active and inactive are the calls of the source. Rule for the calls: active = growth percent below 10; inactive = the rest.
Outcome codes: y for active, n for inactive

[[record]]
compound = "C#Cc1nc(C(=O)NCCC(=O)Nc2ccc(NC(=O)c3ccc(/C=C/C(=O)c4nccn4C)cc3)cc2)cs1"
label_value = "n"

[[record]]
compound = "CS(=O)(=O)Nc1cc(-c2ccc3ncc(C#N)c(NCc4ccccc4)c3c2)cnc1Cl"
label_value = "y"

[[record]]
compound = "CCOC(=O)c1c(NC(=O)c2ccccc2C(F)(F)F)sc2c1CCC(=O)C2"
label_value = "n"

[[record]]
compound = "COc1cc(Cn2cc3c(c2)-c2onc(CN4CCCC4)c2CC3)cc(OC)c1OC"
label_value = "n"

[[record]]
compound = "CNC(=O)c1cc(-c2ccc(NS(=O)(=O)c3ccc(C)cc3)cc2)nc2cccnc12"
label_value = "n"

[[record]]
compound = "Cc1ccc(-c2nnc(SCc3ccc(O)c4ncccc34)o2)cc1"
label_value = "n"

[[record]]
compound = "O=C(NCCN1CCCC1)c1ccc(-c2nc3ccc4[nH]ncc4c3c3c2CCCC3)cc1"
label_value = "y"

[[record]]
compound = "CC(=O)C1=C(C)NC(NN)=NC1c1cccc(Cl)c1 (stereo not given)"
label_value = "n"

[[record]]
compound = "CCn1c(SCC(=O)Nc2cccc(C(=O)/C=C/c3ccc(C)cc3)c2)nc2ccccc2c1=O"
label_value = "n"

[[record]]
compound = "CCNC(=O)N1CCc2cc(OC)c(OCCc3ccc(OC)c(N)c3)cc2C1c1cc(C)c(C)cc1C (stereo not given)"
label_value = "n"

[[record]]
compound = "N/C(=N\\C(N)=N\\c1nc2ccccc2s1)c1ccncc1Cl"
label_value = "n"

[[record]]
compound = "CC1(C)CC[C@]2(C(=O)O)CC[C@]3(C)C(=CC[C@@H]4[C@@]5(C)CC/C(=N\\OCCC#N)C(C)(C)[C@@H]5CC[C@]43C)[C@@H]2C1"
label_value = "n"

[[record]]
compound = "Nc1ccccc1NC(=O)c1ccc(NC(=O)C/C=C/c2cccnc2)cc1"
label_value = "n"

[[record]]
compound = "COc1cc(/C=C2\\C(=O)Nc3ccccc32)ccc1OCc1ccc(Cl)cc1"
label_value = "n"

[[record]]
compound = "NC(N)=Nc1ccc(Nc2cccc(Nc3ccc(Cl)c(C(F)(F)F)c3)c2)cn1"
label_value = "n"

[[record]]
compound = "COc1cc(/C=N/NC(=O)c2cn(C3CC3)c3c(OC)c(N4CC5CCCNC5C4)c(F)cc3c2=O)ccc1O (stereo not given)"
label_value = "y"

[[record]]
compound = "CN1c2ccccc2Sc2cc(C=C(C#N)C#N)ccc21"
label_value = "n"

[[record]]
compound = "Cc1ccc(CSc2nc(-c3ccc(Cl)cc3)c(C#N)c(N3CCNCC3)n2)cc1"
label_value = "n"

[[record]]
compound = "Cn1ccnc1C(=O)/C=C/c1ccc(CNC(=O)c2ccc(Cl)cc2)cc1"
label_value = "y"

[[record]]
compound = "CCO/C=N/C1=C(C#N)C(c2ccc(OC)cc2)c2sc3c(CC)cccc3c2O1 (stereo not given)"
label_value = "n"


----------
Test system: IGROV1 ovarian
Test: NCI-60 one-dose screen, 48 h (100 = growth as untreated, 0 = no growth, -100 = all killed)
Conditions: 10 µM unless noted
About 83,000 compounds went through this panel and 20% of them were active in at least one assay; those are over-represented in the sample as a whole. Active and inactive are the calls of the source. The calls were made as follows: active = growth percent below 10; inactive = the rest.
quantity: growth

[[record]]
compound = "COc1ccc(C2CC(c3cccc(Nc4nc(Cl)nc5cc(OC)c(OC)cc45)c3)=Nc3c(N)nc(N)nc3N2)cc1 (centres undefined)"
experimental_value = "92.5% (inactive)"

[[record]]
compound = "Cc1ccc(-n2cc(/C=N/NC(=O)c3ccncc3)c(-c3ccc(S(C)(=O)=O)cc3)n2)cc1"
experimental_value = "77.8% (inactive)"

[[record]]
compound = "O=S(=O)(Oc1ccc(-c2nnc(Nc3ccccc3)s2)cc1)C(F)(F)C(F)(F)C(F)(F)C(F)(F)C(F)(F)C(F)(F)F"
experimental_value = "107% (inactive)"

[[record]]
compound = "CCCCCCCn1cc2c(NCCc3ccccc3)ncnc2n1"
experimental_value = "97.5% (inactive)"

[[record]]
compound = "NC(=O)c1c(NC(=O)c2ccccc2C(F)(F)F)sc2c1CCC(=O)C2"
experimental_value = "31.2% (inactive)"

[[record]]
compound = "COc1cc(OC)cc(C(=O)Nc2cccc(C#Cc3cccc4[nH]nc(N)c34)c2)c1"
experimental_value = "20.4% (inactive)"

[[record]]
compound = "COc1ccc(C(=O)c2c(N)c(C#N)cn2-c2ccccc2OC)cc1"
experimental_value = "33.1% (inactive)"

[[record]]
compound = "O=C1[C@H]2Cc3c([nH]c4ccccc34)[C@@H](c3c(Cl)cccc3Cl)N2C(=O)CN1C1CCN(CC2CCCCC2)CC1"
experimental_value = "53.2% (inactive)"

[[record]]
compound = "CS(=O)(=O)c1ncc(-c2ccccc2)cn1"
experimental_value = "99.5% (inactive)"

